Molecular target: T1, IL6R on the cell-surface of TF-1 cells (UniProt P08887 20-468, limits assumed)
T1 sequence (looked up): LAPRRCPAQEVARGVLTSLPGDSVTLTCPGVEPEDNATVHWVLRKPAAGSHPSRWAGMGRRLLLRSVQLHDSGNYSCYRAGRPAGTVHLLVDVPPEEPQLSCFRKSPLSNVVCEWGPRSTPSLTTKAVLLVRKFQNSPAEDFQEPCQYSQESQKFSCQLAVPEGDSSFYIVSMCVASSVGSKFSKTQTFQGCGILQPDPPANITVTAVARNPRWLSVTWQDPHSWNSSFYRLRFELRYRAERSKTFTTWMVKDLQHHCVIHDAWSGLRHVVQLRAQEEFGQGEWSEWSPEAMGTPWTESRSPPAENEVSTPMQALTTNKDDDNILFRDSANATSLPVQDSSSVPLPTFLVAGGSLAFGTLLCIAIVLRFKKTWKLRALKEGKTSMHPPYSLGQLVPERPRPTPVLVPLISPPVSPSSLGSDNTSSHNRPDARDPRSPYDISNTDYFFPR
Test: cell-based or functional assay
parameter.measured: Inhibition of IL6-dependent proliferation of TF-1 cells (3H-thymidine incorporation), IC50 (nM)

>  <binder>
IL6R65PMP7G8 (VHH, Also expressed in E. coli and purified via IMAC) VHH: EVQLVESGGGLVQPGGSLRLSCAASGSTFRINVMAWYRQAPGKGRELVAGVINDGSTTYADSVKGRFTISRDNAKNTLYLQMNSLRPEDTAVYYCAFVTTNSDYDLGRDYWGQGTLVTVSS

>  <number>
6.2

$$$$
>  <binder>
Nanobody IL6R65 (VHH, also called ILR65) VHH: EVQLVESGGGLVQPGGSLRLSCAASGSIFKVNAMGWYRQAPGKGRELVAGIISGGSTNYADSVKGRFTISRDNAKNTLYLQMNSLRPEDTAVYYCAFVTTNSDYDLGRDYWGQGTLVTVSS

>  <number>
55

$$$$
